Origin of values: patent US20090035266A1

Target: T1, HLA-A2 molecules on T2 cells (human)
T1 construct: whole, on cells; MHC class I molecule on the cell surface; also called HLA-A2.1
Assay: T2 cells loaded overnight with 12.5 µg/ml peptide, washed, brefeldin A, surface HLA-A2 by flow cytometry (FIG. 1B)
metric: percent of peptide-HLA-A2 complexes remaining over 8 hours

The binder identified as QLAPDVVAFV [P16 (17L) PAGE4 agonist peptide] registered its percent of peptide-HLA-A2 complexes remaining over 8 hours at > 43.6%

KTPPNPKHA (Synthetic peptide; also called P84-92) [P84 (native) PAGE4 peptide, amino acids 84-92] yielded percent of peptide-HLA-A2 complexes remaining over 8 hours of > 43.6%

percent of peptide-HLA-A2 complexes remaining over 8 hours for YLAPDVVAFV (also called P16-2) [P16 (16Y/17L) PAGE4 agonist peptide] is > 43.6%

Quick note, percent of peptide-HLA-A2 complexes remaining over 8 hours for YLPPNPKHV (also called P84-1) [P84 (84Y/85L/92V) PAGE4 agonist peptide] landed at > 43.6%
